Measured values drawn from paper PMC11671014 for this set.

Assay: Blood exposure in the P. falciparum infected SCID mouse model
Format: in vivo, NODscidIL2Rγ^null mice engrafted with human RBCs
Conditions: female, NODscidIL2Rγnull engrafted with human RBCs, mouse, whole blood, po, 50 mg/kg, 4 days x 50 mg/kg p.o., after first dose, blood, read-out: AUC0-24h (mean)
Procedure: The model using P. falciparum Pf3D7^0087/N9 in NODscidIL2Rγ^null mice engrafted with human RBCs was adapted from a previously described procedure. Female NODscidIL2Rγ^null mice were purchased from Charles River (Germany). […] The antimalarial efficacy was assessed following administration (p.o.) of 100 or 200 mg/kg of compound or of 4 daily doses of 50 mg/kg, initiated on day 3 post-infection. […]
measurement.kind: AUC(0-t) (ng·h/mL)

1. CC(C)c1nn([C@@H]2O[C@H](COS(N)(=O)=O)[C@@H](O)[C@H]2O)c2ncnc(N)c12 [ML471] : 21100

* * *

assay: Rat pharmacokinetics; assay type: in vivo, Sprague-Dawley rats; conditions: male, Sprague-Dawley, PO 25 mg/kg, plasma
measurement.kind: Tmax (min)

1) CC(C)c1nn([C@@H]2O[C@H](COS(N)(=O)=O)[C@@H](O)[C@H]2O)c2ncnc(N)c12 [ML471] : 45

* * *

assay: Rat pharmacokinetics; type: in vivo, Sprague-Dawley rats; details: male, Sprague-Dawley, whole blood, PO 25 mg/kg, blood
measurement.kind: Cmax (nM)

1) CC(C)c1nn([C@@H]2O[C@H](COS(N)(=O)=O)[C@@H](O)[C@H]2O)c2ncnc(N)c12 : 669

* * *

test: Rat pharmacokinetics; assay type: in vivo, Sprague-Dawley rats; conditions: male, Sprague-Dawley, whole blood, PO 1 mg/kg, blood, read-out: T1/2z (converted)
measurement.kind: half-life (h)

1) CC(C)c1nn([C@@H]2O[C@H](COS(N)(=O)=O)[C@@H](O)[C@H]2O)c2ncnc(N)c12 : 23.2

* * *

Molecular target: NAE (NEDD8-activating enzyme) (Homo sapiens)
Sequence (Q8TBC4 1-463): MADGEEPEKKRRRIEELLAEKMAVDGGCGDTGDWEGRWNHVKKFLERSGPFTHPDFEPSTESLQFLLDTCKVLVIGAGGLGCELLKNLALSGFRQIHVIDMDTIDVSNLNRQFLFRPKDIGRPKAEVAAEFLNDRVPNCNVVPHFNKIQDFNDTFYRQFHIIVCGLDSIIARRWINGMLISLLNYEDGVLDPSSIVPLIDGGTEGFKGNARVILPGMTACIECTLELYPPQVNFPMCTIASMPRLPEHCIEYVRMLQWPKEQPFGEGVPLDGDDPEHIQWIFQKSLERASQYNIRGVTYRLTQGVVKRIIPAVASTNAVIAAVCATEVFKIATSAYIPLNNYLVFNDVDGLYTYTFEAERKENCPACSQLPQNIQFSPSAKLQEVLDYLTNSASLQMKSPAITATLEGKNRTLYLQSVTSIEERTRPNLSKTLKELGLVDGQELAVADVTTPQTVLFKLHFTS
Sequence (Q13564 1-534 partner): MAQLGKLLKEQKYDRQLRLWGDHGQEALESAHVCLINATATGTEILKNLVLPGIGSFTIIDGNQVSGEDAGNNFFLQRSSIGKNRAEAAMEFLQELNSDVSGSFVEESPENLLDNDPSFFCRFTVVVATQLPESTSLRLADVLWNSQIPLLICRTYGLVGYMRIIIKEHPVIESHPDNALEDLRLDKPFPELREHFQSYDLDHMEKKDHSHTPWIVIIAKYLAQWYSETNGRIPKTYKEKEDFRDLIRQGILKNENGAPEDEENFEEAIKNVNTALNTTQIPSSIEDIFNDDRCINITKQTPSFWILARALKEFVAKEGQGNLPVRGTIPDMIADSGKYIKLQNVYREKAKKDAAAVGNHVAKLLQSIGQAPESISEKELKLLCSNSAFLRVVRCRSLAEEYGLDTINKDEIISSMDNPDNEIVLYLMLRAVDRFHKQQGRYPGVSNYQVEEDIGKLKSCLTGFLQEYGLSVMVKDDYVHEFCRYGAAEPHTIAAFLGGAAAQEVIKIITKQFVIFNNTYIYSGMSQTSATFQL
measurement.kind: IC50 (µM)

1. Nc1ncnc2c1c(C(F)(F)F)nn2[C@@H]1O[C@H](COS(N)(=O)=O)[C@@H](O)[C@H]1O : 75.3
2. CCOc1nn([C@@H]2O[C@H](COS(N)(=O)=O)[C@@H](O)[C@H]2O)c2ncnc(N)c12 : 66.6
